measurement target: Epidermal growth factor receptor [T790M,L858R] (Homo sapiens, UniProt P00533, L858R/T790M)
Sequence (P00533 25-1210 T790M/L858R limits assumed): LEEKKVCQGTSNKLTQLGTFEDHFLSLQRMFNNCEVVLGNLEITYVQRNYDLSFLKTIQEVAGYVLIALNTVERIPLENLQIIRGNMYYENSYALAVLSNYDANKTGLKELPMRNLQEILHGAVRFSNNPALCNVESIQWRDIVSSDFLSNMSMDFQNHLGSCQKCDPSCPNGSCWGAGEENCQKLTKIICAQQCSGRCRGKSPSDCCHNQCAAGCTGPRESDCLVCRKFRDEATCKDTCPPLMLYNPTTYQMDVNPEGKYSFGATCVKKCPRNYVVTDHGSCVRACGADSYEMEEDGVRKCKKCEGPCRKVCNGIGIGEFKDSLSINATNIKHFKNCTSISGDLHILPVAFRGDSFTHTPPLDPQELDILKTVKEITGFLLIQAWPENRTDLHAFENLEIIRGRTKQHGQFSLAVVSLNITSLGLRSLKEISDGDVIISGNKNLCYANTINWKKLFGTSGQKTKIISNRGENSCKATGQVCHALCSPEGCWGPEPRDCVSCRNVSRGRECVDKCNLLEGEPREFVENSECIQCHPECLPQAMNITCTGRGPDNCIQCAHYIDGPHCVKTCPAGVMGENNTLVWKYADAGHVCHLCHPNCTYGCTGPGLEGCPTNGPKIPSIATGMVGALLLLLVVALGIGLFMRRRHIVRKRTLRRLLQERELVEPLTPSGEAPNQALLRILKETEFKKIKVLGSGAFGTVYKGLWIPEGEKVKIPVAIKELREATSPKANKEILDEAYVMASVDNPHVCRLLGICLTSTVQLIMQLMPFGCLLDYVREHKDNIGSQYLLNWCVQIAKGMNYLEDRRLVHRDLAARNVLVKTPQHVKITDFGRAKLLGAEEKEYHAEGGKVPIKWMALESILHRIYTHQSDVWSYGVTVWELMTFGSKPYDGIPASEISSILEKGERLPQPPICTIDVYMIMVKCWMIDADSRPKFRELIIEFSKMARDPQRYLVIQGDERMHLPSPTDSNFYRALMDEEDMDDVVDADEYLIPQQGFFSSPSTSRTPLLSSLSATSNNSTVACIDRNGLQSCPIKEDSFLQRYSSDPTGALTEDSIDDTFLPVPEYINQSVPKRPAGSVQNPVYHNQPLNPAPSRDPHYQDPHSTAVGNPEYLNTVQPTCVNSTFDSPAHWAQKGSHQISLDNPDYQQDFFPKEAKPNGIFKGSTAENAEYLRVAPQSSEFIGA
experiment: HTRF-Based EGFR Biochemical Assays
Procedure: EGFR biochemical activity measurements were carried out using the homogeneous time-resolved fluorescence (HTRF) assay (Cisbio). […] Reactions were quenched with the addition of 10 μL of phospho-tyrosine antibody-Europium(III) cryptate (1-to-180 volume ratio) and Streptavidin-XL665 (46.7 nM) in EDTA-containing detection buffer, then incubated at room temperature for 1 hour, and read with a PHERAstar plate reader (excitation =337 nm, emission =620 nm and 665 nm).
measurement label: IC50 (nM)

I. O=C(Nc1nccs1)C(c1cccc(F)c1)N1Cc2cnc(Br)cc2C1=O (stereo not given) [US12377080, Compound 1]
II. O=C(Nc1ccccn1)C(c1cccc(F)c1)N1Cc2ncc(Br)cc2C1=O (stereo not given) [US12377080, Compound 3]
III. O=C(Nc1nccs1)C(c1cccc(F)c1)N1Cc2ccc(Br)nc2C1=O (stereo not given) [US12377080, Compound 4]
Qu. Ascending sort, IC50. Hello, could you send the labels back in the order asked? Thank you.
Ans. III, II, I
(III: 14 nM, II: 40 nM, I: 104 nM)

a. O=C(Nc1ccccn1)C(c1cccc(F)c1)N1Cc2ccc(Br)nc2C1=O (stereo not given) [US12377080, Compound 5]
b. O=C(Nc1nccs1)C(c1cccc(F)c1)N1Cc2ncc(Br)cc2C1=O (stereo not given) [US12377080, Compound 2]
Qu. Param metric = IC50; output whichever of a , b has the minimum value. Refer to your chosen item by its label in the answer.
Ans. b
(b: 15 nM, a: 114 nM)

---

pIC50 for assorted molecules
measurement target: Epidermal growth factor receptor [L858R] (Homo sapiens, UniProt P00533, L858R)
Sequence (P00533 25-1210 L858R limits assumed): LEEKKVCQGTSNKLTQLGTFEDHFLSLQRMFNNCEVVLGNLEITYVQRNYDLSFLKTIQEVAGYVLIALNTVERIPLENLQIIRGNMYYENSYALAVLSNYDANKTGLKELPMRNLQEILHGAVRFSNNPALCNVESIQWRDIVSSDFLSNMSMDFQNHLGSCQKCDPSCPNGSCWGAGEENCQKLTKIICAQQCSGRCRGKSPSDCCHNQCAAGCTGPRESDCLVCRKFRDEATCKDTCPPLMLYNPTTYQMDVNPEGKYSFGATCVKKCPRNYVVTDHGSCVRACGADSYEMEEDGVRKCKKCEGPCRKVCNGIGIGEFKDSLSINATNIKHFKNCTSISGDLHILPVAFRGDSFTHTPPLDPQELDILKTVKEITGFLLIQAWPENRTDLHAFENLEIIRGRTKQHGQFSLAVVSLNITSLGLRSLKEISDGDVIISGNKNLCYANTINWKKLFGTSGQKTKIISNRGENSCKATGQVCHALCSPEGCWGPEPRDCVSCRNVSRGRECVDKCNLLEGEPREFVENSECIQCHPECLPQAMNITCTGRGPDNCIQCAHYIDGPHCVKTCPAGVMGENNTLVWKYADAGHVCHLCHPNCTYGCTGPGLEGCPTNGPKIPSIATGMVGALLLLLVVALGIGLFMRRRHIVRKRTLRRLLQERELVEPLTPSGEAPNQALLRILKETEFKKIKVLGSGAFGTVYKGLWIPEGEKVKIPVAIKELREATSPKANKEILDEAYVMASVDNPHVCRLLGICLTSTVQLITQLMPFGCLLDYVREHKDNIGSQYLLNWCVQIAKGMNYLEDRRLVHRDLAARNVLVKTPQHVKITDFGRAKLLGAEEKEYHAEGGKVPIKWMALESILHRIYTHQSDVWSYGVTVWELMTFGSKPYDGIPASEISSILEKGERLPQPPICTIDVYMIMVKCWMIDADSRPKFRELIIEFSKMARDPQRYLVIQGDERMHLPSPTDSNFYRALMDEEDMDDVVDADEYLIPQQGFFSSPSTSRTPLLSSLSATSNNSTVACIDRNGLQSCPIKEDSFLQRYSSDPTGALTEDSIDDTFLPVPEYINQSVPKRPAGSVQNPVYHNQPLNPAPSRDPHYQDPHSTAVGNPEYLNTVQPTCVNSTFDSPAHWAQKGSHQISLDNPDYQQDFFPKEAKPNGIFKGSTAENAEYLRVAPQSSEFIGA
experiment: HTRF-Based EGFR Biochemical Assays
pIC50: −log10 of the molar value.

// solved cases for pIC50 follow
molecule: O=C(Nc1ccccn1)C(c1cccc(F)c1)N1Cc2ccc(Br)nc2C1=O (stereo not given)
measurement target: Epidermal growth factor receptor [L858R] (Homo sapiens, UniProt P00533, L858R)
measurement label: pIC50
result: < 6.00

molecule: O=C(Nc1ccccn1)C(c1cccc(F)c1)N1Cc2ncc(Br)cc2C1=O (stereo not given)
measurement target: Epidermal growth factor receptor [L858R] (Homo sapiens, UniProt P00533, L858R)
measurement label: pIC50
result: < 6.00

molecule: O=C(Nc1nccs1)C(c1cccc(F)c1)N1Cc2cnc(Br)cc2C1=O (stereo not given)
measurement target: Epidermal growth factor receptor [L858R] (Homo sapiens, UniProt P00533, L858R)
measurement label: pIC50
result: < 6.00

Qu. Give recorded pIC50. O=C(Nc1nccs1)C(c1cccc(F)c1)N1Cc2ncc(Br)cc2C1=O (stereo not given)
Ans. 6.50

Qu. Give recorded pIC50. O=C(Nc1nccs1)C(c1cccc(F)c1)N1Cc2ccc(Br)nc2C1=O (stereo not given)
Ans. < 6.00
